System: DU-145
ASSAY EXPLANATION: Cytotoxicity against human DU145 cells after 48 hrs by SRB assay
Type: functional, cell-based
CONDITION DETAILS: Homo sapiens, DU-145, 48 h; read-out: GI50
QUANTITY NAME: log10 GI50 (log10 of the value in nM)
// units: nM (pre-log); metric: GI50; scale: log10

Record "C/C=C1\NC(=O)[C@H](Cc2ccccc2)NC(=O)[C@@H](C(C)C)NC(=O)[C@@H]([C@H](C)CC)NC(=O)[C@H](NC(=O)[C@H](NC(=O)[C@H](CCCN)NC(=O)[C@H]2CCCN2C(=O)[C@H](NC(=O)[C@H](CC(C)C)NC(=O)[C@@H](NC(=O)[C@H](NC(=O)CCCC(C)C)C(C)C)[C@@H](C)O)C(C)C)[C@H](C)CC)[C@H](C)OC(=O)[C@H](C(C)C)NC1=O" . Reported log10 GI50: 2.97

Record "C/C=C1\NC(=O)[C@H](Cc2ccc(-c3ccccc3)cc2)NC(=O)[C@@H](C(C)C)NC(=O)[C@@H]([C@H](C)CC)NC(=O)[C@H](NC(=O)[C@H](NC(=O)[C@H](CCCN)NC(=O)[C@H]2CCCN2C(=O)[C@H](NC(=O)[C@@H](NC(=O)[C@@H](NC(=O)[C@H](NC(=O)CCCC(C)C)C(C)C)[C@@H](C)O)C(C)C)C(C)C)[C@H](C)CC)[C@H](C)OC(=O)[C@H](C(C)C)NC1=O" . Reported log10 GI50: 2.22

Record "C/C=C1\NC(=O)[C@H](Cc2ccccc2)NC(=O)[C@@H](C(C)C)NC(=O)[C@@H]([C@H](C)CC)NC(=O)[C@H](NC(=O)[C@H](NC(=O)[C@H](CCCN)NC(=O)[C@H]2CCCN2C(=O)[C@H](NC(=O)[C@@H](NC(=O)[C@@H](NC(=O)[C@H](NC(=O)CC[C@@H](C)[C@H]2CC[C@H]3[C@@H]4CC[C@@H]5C[C@H](OC(=O)C(F)(F)F)CC[C@]5(C)[C@H]4CC[C@]23C)C(C)C)[C@@H](C)O)C(C)C)C(C)C)[C@H](C)CC)[C@H](C)OC(=O)[C@H](C(C)C)NC1=O" . Reported log10 GI50: 2.60

Record "C/C=C1\NC(=O)[C@H](Cc2ccccc2)NC(=O)[C@@H](C(C)C)NC(=O)[C@@H]([C@@H](C)CC)NC(=O)[C@H](NC(=O)[C@H](NC(=O)[C@H](CCCN)NC(=O)[C@H]2CCCN2C(=O)[C@H](NC(=O)[C@@H](NC(=O)[C@@H](NC(=O)[C@H](NC(=O)CCCC(C)C)[C@@H](C)O)[C@@H](C)O)C(C)C)C(C)C)[C@@H](C)CC)[C@@H](C)OC(=O)[C@H](C(C)C)NC1=O" . Reported log10 GI50: 3.17

Record "C/C=C1\NC(=O)[C@H](Cc2ccccc2)NC(=O)[C@@H](C(C)C)NC(=O)[C@@H]([C@H](C)CC)NC(=O)[C@H](NC(=O)[C@H](NC(=O)[C@H](CCCN)NC(=O)[C@H]2CCCN2C(=O)[C@H](NC(=O)[C@@H](NC(=O)[C@@H](NC(=O)[C@@H](NC(=O)CCCC(C)C)C(C)C)[C@@H](C)O)C(C)C)C(C)C)[C@H](C)CC)[C@H](C)OC(=O)[C@H](C(C)C)NC1=O" . Reported log10 GI50: 2.74

Record "C/C=C1\NC(=O)[C@H](Cc2ccccc2)NC(=O)[C@@H](C(C)C)NC(=O)[C@@H]([C@H](C)CC)NC(=O)[C@H](NC(=O)[C@H](NC(=O)[C@H](CCCN)NC(=O)[C@H]2CCCN2C(=O)[C@H](NC(=O)[C@@H](NC(=O)CNC(=O)[C@H](NC(=O)CCCC(C)C)C(C)C)C(C)C)C(C)C)[C@H](C)CC)[C@H](C)OC(=O)[C@H](C(C)C)NC1=O" . Reported log10 GI50: 2.76

Record "CC[C@@H]1NC(=O)[C@H](Cc2ccccc2)NC(=O)[C@@H](C(C)C)NC(=O)[C@@H]([C@H](C)CC)NC(=O)[C@H](NC(=O)[C@H](NC(=O)[C@H](CCCN)NC(=O)[C@H]2CCCN2C(=O)[C@H](NC(=O)[C@@H](NC(=O)[C@@H](NC(=O)[C@H](NC(=O)CCCC(C)C)C(C)C)[C@@H](C)O)C(C)C)C(C)C)[C@H](C)CC)[C@H](C)OC(=O)[C@H](C(C)C)NC1=O" . Reported log10 GI50: 3.48

Record "C/C=C1\NC(=O)[C@H](Cc2ccccc2)NC(=O)[C@@H](C(C)C)NC(=O)[C@@H]([C@H](C)CC)NC(=O)[C@H](NC(=O)[C@H](NC(=O)[C@H](CCCNC(=O)C(F)(F)F)NC(=O)[C@H]2CCCN2C(=O)[C@H](NC(=O)[C@@H](NC(=O)[C@@H](NC(=O)[C@H](NC(=O)CC[C@@H](C)CC)C(C)C)[C@@H](C)O)C(C)C)C(C)C)[C@H](C)CC)[C@H](C)OC(=O)[C@H](C(C)C)NC1=O" . Reported log10 GI50: 3.12

Record "C/C=C1\NC(=O)[C@H](Cc2ccccc2)NC(=O)[C@@H](C(C)C)NC(=O)[C@@H]([C@H](C)CC)NC(=O)[C@H](NC(=O)[C@H](NC(=O)[C@H](CCCN)NC(=O)[C@H]2CCCN2C(=O)[C@H](NC(=O)[C@@H](NC(=O)[C@H](CCC(N)=O)NC(=O)[C@H](NC(=O)CCCC(C)C)C(C)C)C(C)C)C(C)C)[C@H](C)CC)[C@H](C)OC(=O)[C@H](C(C)C)NC1=O" . Reported log10 GI50: 2.96

Record "C/C=C1\NC(=O)[C@H](Cc2ccccc2)NC(=O)[C@@H](C(C)C)NC(=O)[C@@H]([C@H](C)CC)NC(=O)[C@H](NC(=O)[C@H](NC(=O)[C@H](CCCN)NC(=O)[C@H]2CCCN2C(=O)[C@H](NC(=O)[C@@H](NC(=O)[C@@H](NC(=O)[C@H](NC(=O)c2ccccc2)C(C)C)[C@@H](C)O)C(C)C)C(C)C)[C@H](C)CC)[C@H](C)OC(=O)[C@H](C(C)C)NC1=O" . Reported log10 GI50: 3.08
